Source listed as patent US20040097502A1.

observed_property: melting point (°C)
Express it in °C; write the number only.

Examples with answers:
INSERT INTO results (compound, observed_property, unit_symbol, reported_result) VALUES
  ('Oc1ccc(Nc2cc(-c3c[nH]nc3-c3ccccn3)ccn2)cc1 [Example 16]', 'melting point', '°C', 268),
  ('Clc1ccc(Nc2cc(-c3c[nH]nc3-c3ccccn3)ccn2)cc1 [Example 1]', 'melting point', '°C', 216),
  ('COc1ccc(Nc2cc(-c3c[nH]nc3-c3ccccn3)ccn2)cc1OC [Example 13]', 'melting point', '°C', 210);

In the following, a different compound is considered.
Query :: Return reported melting point; argument: Cc1ccc(Nc2cc(-c3c[nH]nc3-c3ccccn3)ccn2)cc1C [Example 20]
Result :: 220
